This listing pairs molecules with measured growth inhibition.
- assay_comment: NCI Yeast Anticancer Drug Screen. Data for the rad50 strain (AID 155);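 note: 0% = growth of vehicle-only cultures of the same strain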
- test_context: S. cerevisiae rad50 strain growth inhibition; at 50.0 µM; stronger effect = higher value
This is part of a sample that, as a whole, favours compounds with a hit. Of some 79,000 tested, about 15% had one in any assay. Calls of active or inactive are those of the source. Cut-off read from the data, not from the text of the source: active = growth inhibition above about 70%; inactive = the rest.

Enquiry: Look up and report measured growth inhibition for this entry: COC(=O)CCC1CCC(CC2CCC(CCC(=O)OC)CC2)CC1 (centres undefined)
Return: -20.1% (inactive)

Enquiry: Look up and report measured growth inhibition for this entry: O=C(O)C1(O)CC(O)C(O)C(O)C1 (centres undefined)
Return: 5.25% (inactive)

Enquiry: Look up and report measured growth inhibition for this entry: CCOC1C[C@H]2C[C@H]3[C@@H]4CC=C5C[C@@H](OC(C)=O)CC[C@]5(C)[C@H]4CC[C@]3(C)C2=C(C)O1 (some centres undefined)
Return: 20.9% (inactive)

Enquiry: Look up and report measured growth inhibition for this entry: CCOC(=O)c1cnc2cc3c(cc2c1Nc1ccc2c(c1)OCO2)OCO3
Return: 12.4% (inactive)

Enquiry: Look up and report measured growth inhibition for this entry: CCCCNC(=S)/N=C/c1c(O)c2ccccc2[nH]c1=O
Return: -39.7% (inactive)

Others:
Enquiry: Look up and report measured growth inhibition for this entry: O=C1CC(N2CCOCC2)c2ccccc21 (centres undefined)
Return: 30% (inactive)

Enquiry: Look up and report measured growth inhibition for this entry: O=C(O)C(=C\c1ccccc1)/C(=C\c1ccccc1)C(=O)OCc1ccccc1
Return: 16.9% (inactive)

Enquiry: Look up and report measured growth inhibition for this entry: CC(C)C1C(=O)CCCC1=O
Return: -10.5% (inactive)

Enquiry: Look up and report measured growth inhibition for this entry: O=S(=O)(Nc1cccc(F)c1)c1ccc(F)cc1
Return: -12.5% (inactive)

----------
- assay_comment: NCI Yeast Anticancer Drug Screen. Data for the bub3 strain (AID 167)
- test_context: S. cerevisiae bub3 mutant strain, at 50.0 µM, stronger effect = higher value
The panel holds about 79,000 compounds, 15% with a hit somewhere; the sample as a whole holds those more often.
This listing pairs compounds with measured growth inhibition.
Record the value in %, omitting the unit from your answer.

Field: example entries. Status: answers known.
Enquiry: Look up and report measured growth inhibition for this entry: CCCCCN1C(=O)N=NC1=S
Return: -13.8

Enquiry: Look up and report measured growth inhibition for this entry: Cc1cc(Cl)cc(CN(C)Cc2c(C)[nH]c(=O)[nH]c2=O)c1O
Return: -0.5

Enquiry: Look up and report measured growth inhibition for this entry: CSC1(SC2=NCCN2)SC2(NCCN2)S1
Return: -1.55

Enquiry: Look up and report measured growth inhibition for this entry: Cc1cc(-n2nnc3ccccc3c2=O)on1
Return: -26

Shifting focus to the compound that follows.
Enquiry: Look up and report measured growth inhibition for this entry: CC(=O)OC1(C(=O)O)CCCCC1
Return: 5.25

----------
This listing pairs molecules with measured growth inhibition.
- assay_comment: NCI Yeast Anticancer Drug Screen. Data for the bub3 strain (AID 167)
- test_context: S. cerevisiae bub3 mutant strain, at 50.0 µM, stronger effect = higher value
This is part of a sample that, as a whole, favours compounds with a hit. Of some 79,000 tested, about 15% had one in any assay.
Record the value in %, omitting the unit from your answer.

Field: example entries. Status: answers known.
Enquiry: Look up and report measured growth inhibition for this entry: COCCN1CC(=O)N2Cc3ccccc3CN2C(=O)C1
Return: -3

Enquiry: Look up and report measured growth inhibition for this entry: N#CCc1c(Cl)ccc(Cl)c1Cl
Return: 58.8

Enquiry: Look up and report measured growth inhibition for this entry: CCCCCn1[nH]nc(C(=O)OC)c1=O (tested in a mixture with another compound)
Return: 30.5

Enquiry: Look up and report measured growth inhibition for this entry: CCCCCC(CCCCC)c1ccccn1
Return: 26.9

Enquiry: Look up and report measured growth inhibition for this entry: COC(=O)c1cc(OC)nc(Cl)n1
Return: -11.9

Others:
Enquiry: Look up and report measured growth inhibition for this entry: Cc1ccc(NC(=O)CCCC(=O)C(C#N)c2nc3ccccc3s2)cc1C (stereo not given)
Return: -7.35

Enquiry: Look up and report measured growth inhibition for this entry: COC(=O)/C(C#N)=C1\CCC(OC)N1 (stereo not given)
Return: -13.1

Enquiry: Look up and report measured growth inhibition for this entry: CC(Cl)CNC(=O)Nc1cccc2c1CCCC2 (stereo not given)
Return: -22.2

Enquiry: Look up and report measured growth inhibition for this entry: CC1=CC2C(c3ccccc3)Nc3ccccc3N2C1=O (stereo not given)
Return: -8.65

Enquiry: Look up and report measured growth inhibition for this entry: CCOC(=O)Cc1cc(=O)oc2cc(O)ccc12
Return: -1.8
